TEST PROTOCOL: Drug level in New Zealand white rabbit bone assessed as [14C]dalbavancin level per gram of tissue at 20 mg/kg, iv after 24 hrs by liquid scintillation counting method
Assay type: ADME, organism-based, Oryctolagus cuniculus, Bone element
Design: dose 20 mg/kg, route intravenous
STUDY CONDITIONS: in vivo

[
  {
    "COMPOUND": "CN[C@H]1C(=O)N[C@@H]2Cc3ccc(cc3)Oc3cc4cc(c3O[C@@H]3O[C@H](C(=O)O)[C@@H](O)[C@H](O)[C@H]3NC(=O)CCCCCCCCC(C)C)Oc3ccc(cc3Cl)[C@@H](O)[C@@H]3NC(=O)[C@H](NC(=O)[C@@H]4NC(=O)[C@@H](NC2=O)c2cc(cc(O)c2Cl)Oc2cc1ccc2O)c1ccc(O)c(c1)-c1c(O[C@H]2O[C@H](CO)[C@@H](O)[C@H](O)[C@@H]2O)cc(O)cc1[C@@H](C(=O)NCCCN(C)C)NC3=O [DALBAVANCIN]",
    "Drug uptake": "5.14 µg/g"
  }
]

###

TEST PROTOCOL: Drug level in New Zealand white rabbit cerebrospinal fluid assessed as [14C]dalbavancin level per gram of tissue at 20 mg/kg, iv after 24 hrs by liquid scintillation counting method
Format: ADME, organism-based, Oryctolagus cuniculus
Set-up: dose 20 mg/kg, route intravenous
STUDY CONDITIONS: in vivo

[
  {
    "CHEM SMILES": "CN[C@H]1C(=O)N[C@@H]2Cc3ccc(cc3)Oc3cc4cc(c3O[C@@H]3O[C@H](C(=O)O)[C@@H](O)[C@H](O)[C@H]3NC(=O)CCCCCCCCC(C)C)Oc3ccc(cc3Cl)[C@@H](O)[C@@H]3NC(=O)[C@H](NC(=O)[C@@H]4NC(=O)[C@@H](NC2=O)c2cc(cc(O)c2Cl)Oc2cc1ccc2O)c1ccc(O)c(c1)-c1c(O[C@H]2O[C@H](CO)[C@@H](O)[C@H](O)[C@@H]2O)cc(O)cc1[C@@H](C(=O)NCCCN(C)C)NC3=O",
    "Drug uptake, µg/g": 0.05
  }
]

###

TEST PROTOCOL: Drug level in New Zealand white rabbit skeletal muscle assessed as [14C]dalbavancin level per gram of tissue at 20 mg/kg, iv after 120 hrs by autoradioluminography
Format: ADME, organism-based, Oryctolagus cuniculus
Parameters: dose 20 mg/kg, route intravenous
STUDY CONDITIONS: in vivo
ATTRIBUTE MEASURED: Drug uptake (µg/g)

[
  {
    "CHEM SMILES": "CN[C@H]1C(=O)N[C@@H]2Cc3ccc(cc3)Oc3cc4cc(c3O[C@@H]3O[C@H](C(=O)O)[C@@H](O)[C@H](O)[C@H]3NC(=O)CCCCCCCCC(C)C)Oc3ccc(cc3Cl)[C@@H](O)[C@@H]3NC(=O)[C@H](NC(=O)[C@@H]4NC(=O)[C@@H](NC2=O)c2cc(cc(O)c2Cl)Oc2cc1ccc2O)c1ccc(O)c(c1)-c1c(O[C@H]2O[C@H](CO)[C@@H](O)[C@H](O)[C@@H]2O)cc(O)cc1[C@@H](C(=O)NCCCN(C)C)NC3=O",
    "ATTRIBUTE MEASURED": "Drug uptake",
    "MEAS VALUE": 0.99
  }
]

###

TEST PROTOCOL: Drug level in New Zealand white rabbit epiphyseal plate assessed as [14C]dalbavancin level per gram of tissue at 20 mg/kg, iv after 24 hrs by autoradioluminography
Type: ADME, organism-based, Oryctolagus cuniculus
Design: dose 20 mg/kg, route intravenous
STUDY CONDITIONS: in vivo

[
  {
    "CHEM SMILES": "CN[C@H]1C(=O)N[C@@H]2Cc3ccc(cc3)Oc3cc4cc(c3O[C@@H]3O[C@H](C(=O)O)[C@@H](O)[C@H](O)[C@H]3NC(=O)CCCCCCCCC(C)C)Oc3ccc(cc3Cl)[C@@H](O)[C@@H]3NC(=O)[C@H](NC(=O)[C@@H]4NC(=O)[C@@H](NC2=O)c2cc(cc(O)c2Cl)Oc2cc1ccc2O)c1ccc(O)c(c1)-c1c(O[C@H]2O[C@H](CO)[C@@H](O)[C@H](O)[C@@H]2O)cc(O)cc1[C@@H](C(=O)NCCCN(C)C)NC3=O",
    "Drug uptake / µg/g": 18.7
  }
]

###

TEST PROTOCOL: Drug level in New Zealand white rabbit bone marrow assessed as [14C]dalbavancin level per gram of tissue at 20 mg/kg, iv after 24 hrs by autoradioluminography
Assay type: ADME, organism-based, Oryctolagus cuniculus
Parameters: dose 20 mg/kg, route intravenous
STUDY CONDITIONS: in vivo

[
  {
    "CHEM SMILES": "CN[C@H]1C(=O)N[C@@H]2Cc3ccc(cc3)Oc3cc4cc(c3O[C@@H]3O[C@H](C(=O)O)[C@@H](O)[C@H](O)[C@H]3NC(=O)CCCCCCCCC(C)C)Oc3ccc(cc3Cl)[C@@H](O)[C@@H]3NC(=O)[C@H](NC(=O)[C@@H]4NC(=O)[C@@H](NC2=O)c2cc(cc(O)c2Cl)Oc2cc1ccc2O)c1ccc(O)c(c1)-c1c(O[C@H]2O[C@H](CO)[C@@H](O)[C@H](O)[C@@H]2O)cc(O)cc1[C@@H](C(=O)NCCCN(C)C)NC3=O",
    "Drug uptake, µg/g": 32.1
  }
]

###

TEST PROTOCOL: Drug level in New Zealand white rabbit bone marrow assessed as [14C]dalbavancin level per gram of tissue at 20 mg/kg, iv after 120 hrs by autoradioluminography
Type: ADME, organism-based, Oryctolagus cuniculus
Design: dose 20 mg/kg, route intravenous
STUDY CONDITIONS: in vivo
ATTRIBUTE MEASURED: Drug uptake (µg/g)

[
  {
    "CHEM SMILES": "CN[C@H]1C(=O)N[C@@H]2Cc3ccc(cc3)Oc3cc4cc(c3O[C@@H]3O[C@H](C(=O)O)[C@@H](O)[C@H](O)[C@H]3NC(=O)CCCCCCCCC(C)C)Oc3ccc(cc3Cl)[C@@H](O)[C@@H]3NC(=O)[C@H](NC(=O)[C@@H]4NC(=O)[C@@H](NC2=O)c2cc(cc(O)c2Cl)Oc2cc1ccc2O)c1ccc(O)c(c1)-c1c(O[C@H]2O[C@H](CO)[C@@H](O)[C@H](O)[C@@H]2O)cc(O)cc1[C@@H](C(=O)NCCCN(C)C)NC3=O",
    "ATTRIBUTE MEASURED": "Drug uptake",
    "MEAS VALUE": 29.9
  }
]

###

TEST PROTOCOL: Drug level in New Zealand white rabbit compact bone assessed as [14C]dalbavancin level per gram of tissue at 20 mg/kg, iv after 120 hrs by autoradioluminography
Type: ADME, organism-based, Oryctolagus cuniculus, Bone element
Parameters: dose 20 mg/kg, route intravenous
STUDY CONDITIONS: in vivo

[
  {
    "CHEM SMILES": "CN[C@H]1C(=O)N[C@@H]2Cc3ccc(cc3)Oc3cc4cc(c3O[C@@H]3O[C@H](C(=O)O)[C@@H](O)[C@H](O)[C@H]3NC(=O)CCCCCCCCC(C)C)Oc3ccc(cc3Cl)[C@@H](O)[C@@H]3NC(=O)[C@H](NC(=O)[C@@H]4NC(=O)[C@@H](NC2=O)c2cc(cc(O)c2Cl)Oc2cc1ccc2O)c1ccc(O)c(c1)-c1c(O[C@H]2O[C@H](CO)[C@@H](O)[C@H](O)[C@@H]2O)cc(O)cc1[C@@H](C(=O)NCCCN(C)C)NC3=O",
    "UNITS SYMBOL": "µg/g",
    "Drug uptake": 0.38
  }
]

###

TEST PROTOCOL: Drug level in New Zealand white rabbit bone assessed as [14C]dalbavancin level per gram of tissue at 20 mg/kg, iv after 168 hrs by liquid scintillation counting method
Type: ADME, organism-based, Oryctolagus cuniculus, Bone element
Set-up: dose 20 mg/kg, route intravenous
STUDY CONDITIONS: in vivo
ATTRIBUTE MEASURED: Drug uptake (µg/g)

[
  {
    "CHEM SMILES": "CN[C@H]1C(=O)N[C@@H]2Cc3ccc(cc3)Oc3cc4cc(c3O[C@@H]3O[C@H](C(=O)O)[C@@H](O)[C@H](O)[C@H]3NC(=O)CCCCCCCCC(C)C)Oc3ccc(cc3Cl)[C@@H](O)[C@@H]3NC(=O)[C@H](NC(=O)[C@@H]4NC(=O)[C@@H](NC2=O)c2cc(cc(O)c2Cl)Oc2cc1ccc2O)c1ccc(O)c(c1)-c1c(O[C@H]2O[C@H](CO)[C@@H](O)[C@H](O)[C@@H]2O)cc(O)cc1[C@@H](C(=O)NCCCN(C)C)NC3=O",
    "ATTRIBUTE MEASURED": "Drug uptake",
    "MEAS VALUE": 3.39
  }
]

###

TEST PROTOCOL: Drug level in New Zealand white rabbit compact bone assessed as [14C]dalbavancin level per gram of tissue at 20 mg/kg, iv after 336 hrs by autoradioluminography
Assay type: ADME, organism-based, Oryctolagus cuniculus, Bone element
Set-up: dose 20 mg/kg, route intravenous
STUDY CONDITIONS: in vivo

[
  {
    "COMPOUND": "CN[C@H]1C(=O)N[C@@H]2Cc3ccc(cc3)Oc3cc4cc(c3O[C@@H]3O[C@H](C(=O)O)[C@@H](O)[C@H](O)[C@H]3NC(=O)CCCCCCCCC(C)C)Oc3ccc(cc3Cl)[C@@H](O)[C@@H]3NC(=O)[C@H](NC(=O)[C@@H]4NC(=O)[C@@H](NC2=O)c2cc(cc(O)c2Cl)Oc2cc1ccc2O)c1ccc(O)c(c1)-c1c(O[C@H]2O[C@H](CO)[C@@H](O)[C@H](O)[C@@H]2O)cc(O)cc1[C@@H](C(=O)NCCCN(C)C)NC3=O [DALBAVANCIN]",
    "UNITS SYMBOL": "µg/g",
    "Drug uptake": 0.24
  }
]
